Origin of the recorded values: ChEMBL document CHEMBL1138012

- system name: Cyclin-dependent kinase 4/cyclin D1 (Homo sapiens, UniProt P11802)
- Sequence (P11802 whole entry): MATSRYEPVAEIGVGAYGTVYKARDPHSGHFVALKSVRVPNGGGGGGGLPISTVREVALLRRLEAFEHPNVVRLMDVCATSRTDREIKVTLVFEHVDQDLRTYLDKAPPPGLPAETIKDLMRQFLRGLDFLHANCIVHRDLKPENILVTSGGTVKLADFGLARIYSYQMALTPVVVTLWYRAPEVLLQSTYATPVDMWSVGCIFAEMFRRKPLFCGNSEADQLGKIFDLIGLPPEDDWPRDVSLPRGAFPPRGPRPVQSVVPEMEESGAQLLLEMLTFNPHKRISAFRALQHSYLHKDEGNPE
- Sequence (P24385 whole entry, further chain): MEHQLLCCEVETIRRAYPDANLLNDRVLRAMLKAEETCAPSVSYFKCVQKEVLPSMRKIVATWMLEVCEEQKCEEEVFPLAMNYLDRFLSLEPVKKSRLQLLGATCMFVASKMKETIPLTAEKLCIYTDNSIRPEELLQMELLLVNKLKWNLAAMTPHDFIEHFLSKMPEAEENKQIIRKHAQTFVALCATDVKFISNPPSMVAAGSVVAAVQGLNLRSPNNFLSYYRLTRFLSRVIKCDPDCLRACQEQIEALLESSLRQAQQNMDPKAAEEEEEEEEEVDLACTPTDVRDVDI
- assay explanation: Inhibitory concentration against Cyclin dependant kinase 4-cyclinD1
measured metric: pIC50
Recall that pIC50 is obtained by taking minus log10 of the concentration measured in molar.

Quick check: pIC50 of "COc1ccc(-c2[nH]nc3c2C(=O)c2c(NC(=O)NNC(=O)c4ccccc4)cccc2-3)cc1" ?
8.15

Quick check: pIC50 of "COc1ccc(C(=O)NNC(=O)Nc2cccc3c2C(=O)c2c(-c4ccc(OC)cc4)n[nH]c2-3)cc1" ?
8.00

Quick check: pIC50 of "COc1ccc(-c2[nH]nc3c2C(=O)c2c(NC(=O)NNC(=O)c4cccc([N+](=O)[O-])c4)cccc2-3)cc1" ?
8.00

Quick check: pIC50 of "COC(=O)NNC(=O)Nc1cccc2c1C(=O)c1c-2n[nH]c1-c1ccc(OC)cc1" ?
8.10

Quick check: pIC50 of "COc1ccc(-c2[nH]nc3c2C(=O)c2c(NC(=O)NNC(=O)CCc4ccc(O)cc4)cccc2-3)cc1" ?
8.05

====

I'd be grateful if you could share measured IC50 for these entries.
- system name: Cyclin-dependent kinase 4/cyclin D1 (Homo sapiens, UniProt P11802)
- assay explanation: Inhibitory concentration against Cyclin dependant kinase 4-cyclinD1
I only need the number, in nM, no unit after it.

Quick check: IC50 of "COc1ccc(-c2[nH]nc3c2C(=O)c2c(NC(=O)NNC(=O)c4ccc(O)cc4)cccc2-3)cc1" ?
5

Quick check: IC50 of "COc1ccc(-c2[nH]nc3c2C(=O)c2c(NC(=O)NNC(=O)c4cc(OC)cc(OC)c4)cccc2-3)cc1" ?
20

Quick check: IC50 of "COc1ccc(-c2[nH]nc3c2C(=O)c2c(NC(=O)NNC(=O)c4ccc5ccccc5c4)cccc2-3)cc1" ?
10

====

- system name: Cyclin-dependent kinase 2/cyclin E (Homo sapiens, UniProt P24941)
- assay explanation: Inhibitory concentration against Cyclin dependant kinase 2-cyclinE
I'd be grateful if you could share measured IC50 for these entries.
I only need the number, in nM, no unit after it.

Recorded IC50 for "COc1ccc(-c2[nH]nc3c2C(=O)c2c(NC(=O)NNC(=O)c4cc(N)cc(N)c4)cccc2-3)cc1" with Cyclin-dependent kinase 2/cyclin E (Homo sapiens, UniProt P24941), please?
30

Recorded IC50 for "COc1ccc(-c2[nH]nc3c2C(=O)c2c(NC(=O)NNC(N)=O)cccc2-3)cc1" with Cyclin-dependent kinase 2/cyclin E (Homo sapiens, UniProt P24941), please?
130

Recorded IC50 for "COc1ccc(-c2[nH]nc3c2C(=O)c2c(NC(=O)NNC(=O)c4ccc(O)cc4O)cccc2-3)cc1" with Cyclin-dependent kinase 2/cyclin E (Homo sapiens, UniProt P24941), please?
10

Recorded IC50 for "COc1ccc(-c2[nH]nc3c2C(=O)c2c(NC(=O)NNC(=O)c4ccc(O)c(O)c4)cccc2-3)cc1" with Cyclin-dependent kinase 2/cyclin E (Homo sapiens, UniProt P24941), please?
10

Recorded IC50 for "COc1ccc(-c2[nH]nc3c2C(=O)c2c(NC(=O)NNC(=O)c4cccc5ccccc45)cccc2-3)cc1" with Cyclin-dependent kinase 2/cyclin E (Homo sapiens, UniProt P24941), please?
50

Recorded IC50 for "COc1ccc(-c2[nH]nc3c2C(=O)c2c(NC(=O)NNC(=O)CCc4ccc(O)cc4)cccc2-3)cc1" with Cyclin-dependent kinase 2/cyclin E (Homo sapiens, UniProt P24941), please?
10

Recorded IC50 for "COc1ccc(-c2[nH]nc3c2C(=O)c2c(NC(=O)NNC(=O)c4ccncc4)cccc2-3)cc1" with Cyclin-dependent kinase 2/cyclin E (Homo sapiens, UniProt P24941), please?
10

Recorded IC50 for "COc1ccc(-c2[nH]nc3c2C(=O)c2c(NC(=O)NNC(=O)C(C)C)cccc2-3)cc1" with Cyclin-dependent kinase 2/cyclin E (Homo sapiens, UniProt P24941), please?
10

Recorded IC50 for "COc1ccc(-c2[nH]nc3c2C(=O)c2c(NC(=O)NNC(=O)c4ccccc4O)cccc2-3)cc1" with Cyclin-dependent kinase 2/cyclin E (Homo sapiens, UniProt P24941), please?
9

Recorded IC50 for "COc1ccc(-c2[nH]nc3c2C(=O)c2c(NC(=O)NNC(=O)c4ccccc4OC)cccc2-3)cc1" with Cyclin-dependent kinase 2/cyclin E (Homo sapiens, UniProt P24941), please?
10

Recorded IC50 for "COc1ccc(-c2[nH]nc3c2C(=O)c2c(NC(=O)NNC(=O)c4cccc([N+](=O)[O-])c4)cccc2-3)cc1" with Cyclin-dependent kinase 2/cyclin E (Homo sapiens, UniProt P24941), please?
20

Recorded IC50 for "COc1ccc(-c2[nH]nc3c2C(=O)c2c(NC(=O)NNC(=O)Cc4ccccc4)cccc2-3)cc1" with Cyclin-dependent kinase 2/cyclin E (Homo sapiens, UniProt P24941), please?
30

Recorded IC50 for "COc1ccc(C(=O)NNC(=O)Nc2cccc3c2C(=O)c2c(-c4ccc(OC)cc4)n[nH]c2-3)cc1" with Cyclin-dependent kinase 2/cyclin E (Homo sapiens, UniProt P24941), please?
10

Recorded IC50 for "COc1ccc(-c2[nH]nc3c2C(=O)c2c(NC(=O)NNC(=O)c4ccc(O)c(N)c4)cccc2-3)cc1" with Cyclin-dependent kinase 2/cyclin E (Homo sapiens, UniProt P24941), please?
20

Recorded IC50 for "COc1ccc(-c2[nH]nc3c2C(=O)c2c(NC(=O)NNC(=O)c4ccc(C)cc4)cccc2-3)cc1" with Cyclin-dependent kinase 2/cyclin E (Homo sapiens, UniProt P24941), please?
20

Recorded IC50 for "COc1ccc(-c2[nH]nc3c2C(=O)c2c(NC(=O)NNC(=O)c4ccccc4)cccc2-3)cc1" with Cyclin-dependent kinase 2/cyclin E (Homo sapiens, UniProt P24941), please?
10

Recorded IC50 for "COC(=O)NNC(=O)Nc1cccc2c1C(=O)c1c-2n[nH]c1-c1ccc(OC)cc1" with Cyclin-dependent kinase 2/cyclin E (Homo sapiens, UniProt P24941), please?
10

Recorded IC50 for "COc1ccc(-c2[nH]nc3c2C(=O)c2c(NC(=O)NNC(=O)c4cc(OC)cc(OC)c4)cccc2-3)cc1" with Cyclin-dependent kinase 2/cyclin E (Homo sapiens, UniProt P24941), please?
40

Recorded IC50 for "COc1ccc(-c2[nH]nc3c2C(=O)c2c(NC(=O)NNC(=O)c4cccnc4)cccc2-3)cc1" with Cyclin-dependent kinase 2/cyclin E (Homo sapiens, UniProt P24941), please?
10

Recorded IC50 for "COc1ccc(-c2[nH]nc3c2C(=O)c2c(NC(=O)NNC(=O)c4cccc(C)c4)cccc2-3)cc1" with Cyclin-dependent kinase 2/cyclin E (Homo sapiens, UniProt P24941), please?
10

Recorded IC50 for "COc1ccc(-c2[nH]nc3c2C(=O)c2c(NC(=O)NNC(=O)c4cc(OC)c(OC)c(OC)c4)cccc2-3)cc1" with Cyclin-dependent kinase 2/cyclin E (Homo sapiens, UniProt P24941), please?
20

Recorded IC50 for "COc1ccc(-c2[nH]nc3c2C(=O)c2c(NC(=O)NNC(=O)c4ccc(N)cc4)cccc2-3)cc1" with Cyclin-dependent kinase 2/cyclin E (Homo sapiens, UniProt P24941), please?
10

Recorded IC50 for "COc1ccc(-c2[nH]nc3c2C(=O)c2c(NC(=O)NNC(C)=O)cccc2-3)cc1" with Cyclin-dependent kinase 2/cyclin E (Homo sapiens, UniProt P24941), please?
30

Recorded IC50 for "COc1ccc(-c2[nH]nc3c2C(=O)c2c(NC(=O)NNC(=O)c4ccc5ccccc5c4)cccc2-3)cc1" with Cyclin-dependent kinase 2/cyclin E (Homo sapiens, UniProt P24941), please?
30

Recorded IC50 for "COc1ccc(-c2[nH]nc3c2C(=O)c2c(NC(=O)NNC(=O)c4cccc(N)c4)cccc2-3)cc1" with Cyclin-dependent kinase 2/cyclin E (Homo sapiens, UniProt P24941), please?
10

Recorded IC50 for "COc1ccc(-c2[nH]nc3c2C(=O)c2c(NC(=O)NNC(=O)Nc4ccccc4)cccc2-3)cc1" with Cyclin-dependent kinase 2/cyclin E (Homo sapiens, UniProt P24941), please?
10

Recorded IC50 for "COc1ccc(-c2[nH]nc3c2C(=O)c2c(NC(=O)NNC(=O)c4cc(Cl)ccc4Cl)cccc2-3)cc1" with Cyclin-dependent kinase 2/cyclin E (Homo sapiens, UniProt P24941), please?
30

Recorded IC50 for "COc1ccc(-c2[nH]nc3c2C(=O)c2c(NC=O)cccc2-3)cc1" with Cyclin-dependent kinase 2/cyclin E (Homo sapiens, UniProt P24941), please?
240

Recorded IC50 for "COc1ccc(-c2[nH]nc3c2C(=O)c2c(NC(=O)NNC(=O)C(N)=O)cccc2-3)cc1" with Cyclin-dependent kinase 2/cyclin E (Homo sapiens, UniProt P24941), please?
90

====

I'd be grateful if you could share measured log10(IC50) for these entries.
- system name: Cyclin-dependent kinase 4/cyclin D1 (Homo sapiens)
- assay explanation: Inhibitory concentration against Cyclin dependant kinase 4-cyclinD1
In our notation, the value equals log10 of IC50 in µM.

Quick check: log10(IC50) of "COc1ccc(-c2[nH]nc3c2C(=O)c2c(NC(=O)NNC(=O)c4cc(N)cc(N)c4)cccc2-3)cc1" ?
-2.00

Quick check: log10(IC50) of "COc1ccc(-c2[nH]nc3c2C(=O)c2c(NC(=O)NNC(=O)c4cccc(N)c4)cccc2-3)cc1" ?
-2.15

Quick check: log10(IC50) of "COc1ccc(-c2[nH]nc3c2C(=O)c2c(NC(=O)NNC(=O)c4ccncc4)cccc2-3)cc1" ?
-2.05

Quick check: log10(IC50) of "COc1ccc(-c2[nH]nc3c2C(=O)c2c(NC(=O)NNC(=O)c4cccnc4)cccc2-3)cc1" ?
-2.05

Quick check: log10(IC50) of "COc1ccc(-c2[nH]nc3c2C(=O)c2c(NC(=O)NNC(=O)c4cc(Cl)ccc4Cl)cccc2-3)cc1" ?
-1.70

Quick check: log10(IC50) of "COc1ccc(-c2[nH]nc3c2C(=O)c2c(NC(=O)NNC(=O)c4ccc(O)c(N)c4)cccc2-3)cc1" ?
-2.15

Quick check: log10(IC50) of "COc1ccc(-c2[nH]nc3c2C(=O)c2c(NC(=O)NNC(=O)c4ccc(N)cc4)cccc2-3)cc1" ?
-2.00

Quick check: log10(IC50) of "COc1ccc(-c2[nH]nc3c2C(=O)c2c(NC(=O)NNC(=O)c4ccccc4O)cccc2-3)cc1" ?
-1.22

Quick check: log10(IC50) of "COc1ccc(-c2[nH]nc3c2C(=O)c2c(NC(=O)NNC(=O)C(N)=O)cccc2-3)cc1" ?
-0.62

Quick check: log10(IC50) of "COc1ccc(-c2[nH]nc3c2C(=O)c2c(NC(=O)NNC(=O)c4ccc(O)cc4O)cccc2-3)cc1" ?
-2.00

Quick check: log10(IC50) of "COc1ccc(-c2[nH]nc3c2C(=O)c2c(NC(=O)NNC(=O)Cc4ccccc4)cccc2-3)cc1" ?
-1.70

Quick check: log10(IC50) of "COc1ccc(-c2[nH]nc3c2C(=O)c2c(NC(=O)NNC(C)=O)cccc2-3)cc1" ?
-1.30

Quick check: log10(IC50) of "COc1ccc(-c2[nH]nc3c2C(=O)c2c(NC(=O)NNC(=O)c4cc(OC)c(OC)c(OC)c4)cccc2-3)cc1" ?
-2.15

Quick check: log10(IC50) of "COc1ccc(-c2[nH]nc3c2C(=O)c2c(NC=O)cccc2-3)cc1" ?
-0.40

Quick check: log10(IC50) of "COc1ccc(-c2[nH]nc3c2C(=O)c2c(NC(=O)NNC(=O)C(C)C)cccc2-3)cc1" ?
-2.19

Quick check: log10(IC50) of "COc1ccc(-c2[nH]nc3c2C(=O)c2c(NC(=O)NNC(=O)c4ccc(O)c(O)c4)cccc2-3)cc1" ?
-2.30

Quick check: log10(IC50) of "COc1ccc(-c2[nH]nc3c2C(=O)c2c(NC(=O)NNC(=O)c4cccc(C)c4)cccc2-3)cc1" ?
-2.15
